tested on: P388 leukemia ip, CD2F1 mice, survival T/C; test: NCI In Vivo Anticancer Drug Screen. Data for tumor model P388 Leukemia (intraperitoneal) in CD2F1 (CDF1) mice; details: endpoint: median survival time; dose: 50.0 mg/kg/injection; schedule: Q01DX005 (ip); vehicle: saline with Tween-80; higher = longer survival
Toxic doses and inconclusive results are not listed.
# Lookup of reported T/C keyed by entry

Could you share which T/C value was measured for C[Si](C)(C)O[C@@H]1CCCC1NCC#N (stereo not given in full) ?
101 % of control

And O=C(Nc1ccccc1)C1(C(=O)Nc2ccccc2)SSC(C(=O)Nc2ccccc2)(C(=O)Nc2ccccc2)SS1 ?
107 % of control

Record: COC(=O)C1=NOC2C(=O)N(c3ccccc3)C(=O)C12 (stereo not given)
96 % of control

How about OC1(CN2CCCCC2)CCCOCCCOCCCOCCCOCCCOCCC1 ?
94 % of control

Next up: CC1CC(C)/C(=N/NC(N)=S)C(C(O)CC2CC(=O)NC(=O)C2)C1 (stereo not given)
109 % of control

Do the same for O=C(O)CCC(=O)C(Cc1ccccc1)NC(=O)c1ccccc1 (stereo not given) please
94 % of control

Here is the next compound: CC(C)(C)OC(=O)NC(CC(Cc1ccccc1)C(=O)O)C(=O)NC(CC(Cc1ccccc1)C(=O)O)C(=O)NC(CC(Cc1ccccc1)C(=O)O)C(=O)NCC(=O)Oc1ccc([N+](=O)[O-])cc1 (stereo not given)
89 % of control

Item: C=CCOc1cc2c(cc1C(C)c1ccc(OC)c(C)c1)OCO2 (stereo not given)
100 % of control

Try this compound next: N#CC1=C(O)/C(=C\c2ccc(Cl)c(Cl)c2)N=C1N
89 % of control

Also check COc1ccc(C(C)c2cc3c(cc2OCC(=O)O)OCO3)cc1 (stereo not given)
105 % of control

* * *

Quick list: T/C per entry.
test system: P388 leukemia ip, CD2F1 mice, survival T/C; assay: NCI In Vivo Anticancer Drug Screen. Data for tumor model P388 Leukemia (intraperitoneal) in CD2F1 (CDF1) mice; conditions: endpoint: median survival time; dose: 200.0 mg/kg/injection; schedule: Q01DX009 (ip); vehicle: saline with Tween-80; higher = longer survival
Toxic doses and inconclusive results are not listed.

{"columns": ["compound", "systemName", "T/C"],
 "data": [
  ["O=C(C1=CCCCC1)c1ccc(-c2ccccc2)cc1", "P388 leukemia ip, CD2F1 mice, survival T/C", "100 % of control"],
  ["O=C1SC(c2ccccc2)(c2ccccc2)c2cscc21", "P388 leukemia ip, CD2F1 mice, survival T/C", "90 % of control"],
  ["CCCCC(CC)CO.[Ti] (centres undefined)", "P388 leukemia ip, CD2F1 mice, survival T/C", "100 % of control"]
]}

Consider the compound COc1ccc(NC(=O)Oc2ccc3c(C)cc(=O)oc3c2)c(OC)c1 and give its measured T/C.
121 % of control

Now the compound Clc1ccc(Cl)nn1
100 % of control

Again, but for CCCCCCCCN(/N=C/c1c2c(O)c3c(O)c(C)c4c(c3c1O)C(=O)C(C)(O/C=C/C(OC)C(C)C(OC(C)=O)C(C)C(O)C(C)C(O)C(C)/C=C/C=C(C)C(=O)N2)O4)C1OC(COC(=O)c2ccccc2)C(OC(=O)c2ccccc2)C1OC(=O)c1ccccc1 (centres undefined)
107 % of control

Now the same for CC1(/C=C/c2ccccc2)OCCO1
102 % of control

What do you get for CC(=O)OC1=CC2C(OC1=O)C1C=CC2(OC(C)=O)C(=O)O1 (centres undefined) ?
113 % of control

Another compound: C=CCOC(N)=O
101 % of control

Same question for C/C(CC(c1ccccc1)N1CCc2ccccc2C1)=N/O (centres undefined) please.
100 % of control

How about this compound: CC(=O)c1ccc(NC(O)C(Cl)(Cl)Cl)cc1 (centres undefined)
107 % of control

Please answer likewise for CSCOC/C=C(\C)CCC=C(C)C
114 % of control

Also check CCCCCCCCCOCC(=O)OC
101 % of control

Please give the result for CN(C)c1ccc(-c2nc3c4ccccc4c4ccccc4c3[nH]2)cc1 too.
87 % of control

* * *

System: P388 leukemia ip, CD2F1 mice, survival T/C
Test: NCI In Vivo Anticancer Drug Screen. Data for tumor model P388 Leukemia (intraperitoneal) in CD2F1 (CDF1) mice
Settings: endpoint: median survival time; dose: 100.0 mg/kg/injection; schedule: Q01DX005 (ip); vehicle: Klucel (hydroxypropylcellulose) (HPC); higher = longer survival
Description: The antitumor activity of compounds was measured in mice bearing transplantable tumors. Survival or tumor size were measured and the results are expressed as the measurement made in the treated group (T) divided by the measurement made in the vehicle treated control group (C). The tumor model used in this assay is P388 Leukemia (intraperitoneal) in CD2F1 (CDF1) mice
Toxic doses and inconclusive results are not listed.
The compounds listed here are annotated with their T/C.

Here's what some known entries look like.
{"columns": ["compound", "T/C"],
 "data": [
  ["COc1cc(CCN=Cc2ccccc2O)c([N+](=O)[O-])cc1OC", "100 % of control"],
  ["Nc1cc2nc(=O)cc3n2c(n1)SC3", "100 % of control"],
  ["CCOC(=O)c1cnc(SC)n(-c2ccc(OC)cc2)c1=O", "92 % of control"]
]}

Item O=c1cc(O)nc2nc(-c3ccccc3)c(-c3ccccc3)nn12 has what recorded T/C?
93 % of control

Repeat with COC(=O)CCC(N=C(OC)c1ccccc1)C(=O)OC (stereo unspecified)
103 % of control

Same for Nc1c(C(=O)O)c(Br)cc2c1C(=O)c1ccccc1C2=O
99 % of control

* * *

test system: P388 leukemia ip, CD2F1 mice, survival T/C; test: NCI In Vivo Anticancer Drug Screen. Data for tumor model P388 Leukemia (intraperitoneal) in CD2F1 (CDF1) mice; conditions: endpoint: median survival time; dose: 50.0 mg/kg/injection; schedule: Q01DX009 (ip); vehicle: saline; higher = longer survival
Inconclusive results and toxic doses are left out.
T/C: recorded values

{"columns": ["molecule", "systemName", "recordedEndpoint", "value"],
 "data": [
  ["CC(C)(O)c1ccc[n+]([O-])c1", "P388 leukemia ip, CD2F1 mice, survival T/C", "T/C", "98 % of control"],
  ["N#CC1=C(C#N)SCCCS1", "P388 leukemia ip, CD2F1 mice, survival T/C", "T/C", "100 % of control"],
  ["N=C(N)SCc1cccc(-c2nc3ccccc3c(=O)o2)c1", "P388 leukemia ip, CD2F1 mice, survival T/C", "T/C", "102 % of control"],
  ["C#CC[N+]12CN3CN(CN(C3)C1)C2", "P388 leukemia ip, CD2F1 mice, survival T/C", "T/C", "99 % of control"],
  ["ClCC1OCCO1", "P388 leukemia ip, CD2F1 mice, survival T/C", "T/C", "116 % of control"],
  ["S=P1(c2ccccc2)C=C(N2CCCC2)CC1 (centres undefined)", "P388 leukemia ip, CD2F1 mice, survival T/C", "T/C", "112 % of control"],
  ["O=C(O)c1ccc2c(=O)c(C(=O)O)c[nH]c2c1", "P388 leukemia ip, CD2F1 mice, survival T/C", "T/C", "100 % of control"],
  ["Cc1ccc([Se](=C(C(=O)c2ccccc2)C(=O)c2ccccc2)c2ccc(C)cc2)cc1", "P388 leukemia ip, CD2F1 mice, survival T/C", "T/C", "104 % of control"],
  ["O=C(O)C(O)CBr (centres undefined)", "P388 leukemia ip, CD2F1 mice, survival T/C", "T/C", "95 % of control"],
  ["O=[N+]([O-])c1c(O)c(CNCCCO)cc(CNCCCO)c1O", "P388 leukemia ip, CD2F1 mice, survival T/C", "T/C", "116 % of control"]
]}

Given ClC(Cl)=Nc1ccc(Cl)cc1Cl , state its recorded T/C.
100 % of control

Can you check CCOC(=S)SCC(=O)NC next?
98 % of control

Could you do the same for NCCc1ccccc1 , please?
104 % of control

* * *

test system: P388 leukemia ip, CD2F1 mice, survival T/C; assay: NCI In Vivo Anticancer Drug Screen. Data for tumor model P388 Leukemia (intraperitoneal) in CD2F1 (CDF1) mice; settings: endpoint: median survival time; dose: 200.0 mg/kg/injection; schedule: Q01DX005 (ip); vehicle: Klucel (hydroxypropylcellulose) (HPC); higher = longer survival
Inconclusive results and toxic doses are left out.
# T/C per entry

// known answers, use as guide
{"columns": ["molecule", "systemName", "T/C"],
 "data": [
  ["CN(C)c1c2c(=O)n(C)c(=O)n(C)c2nc2cccc[n+]12", "P388 leukemia ip, CD2F1 mice, survival T/C", "104 % of control"],
  ["CN1C=C/C(=C/[N+](=O)[O-])N(C)C1=O", "P388 leukemia ip, CD2F1 mice, survival T/C", "112 % of control"],
  ["CC(=O)N1C=CN(C(C)=O)C1c1c[nH]c2ccccc12", "P388 leukemia ip, CD2F1 mice, survival T/C", "99 % of control"],
  ["COC(=O)CCSC(=O)Nc1cccc(C(F)(F)F)c1", "P388 leukemia ip, CD2F1 mice, survival T/C", "104 % of control"],
  ["OCc1cccc2c1C(O)c1ccccc1-2 (configuration not stated)", "P388 leukemia ip, CD2F1 mice, survival T/C", "100 % of control"],
  ["CC1(C)CC(NCCN)=CC(=S)N1", "P388 leukemia ip, CD2F1 mice, survival T/C", "104 % of control"]
]}

P388 leukemia ip, CD2F1 mice, survival T/C / T/C / CN1CN(C)CN(Cc2ccc([N+](=O)[O-])cc2)C1 : value?
91 % of control
